Heads up, these molecules all have pIC50 values measured for Phospho-N-acetylmuramoyl-pentapeptide-transferase (Staphylococcus aureus, UniProt P0C1R8).
pIC50: −log10 of the molar value.
quantityMeasured: pIC50

I: CC[C@H](O[C@@H]1O[C@H](CN)[C@@H](O)[C@H]1O)[C@@]12CO[C@@H]([C@H](n3ccc(=O)[nH]c3=O)O1)[C@@H]2O
II: NC[C@H]1O[C@@H](OC[C@@]23CO[C@@H]([C@H](n4ccc(=O)[nH]c4=O)O2)[C@@H]3O)[C@H](O)[C@@H]1O
I'm curious whether I or II has the smaller pIC50 number. Which is it? # answer = label of selected item II
(II: 4.34, I: 5.35)
